Assay: Metabolic stability in cynomolgus monkey plasma assessed as compound remaining at 185 to 259 MBq, iv measured at 15 mins by HPLC analysis
Format: ADME, organism-based, Macaca fascicularis
Details: read-out: Stability
observed property: remaining at 0.25 h (%)
Write it as a number; the unit % goes unstated.

Cn1cc(-c2ccncc2)c(-c2ccc(OCc3cc(OCC[18F])c4ccccc4n3)cc2)n1    93

Problem: Which remaining at 0.25 h value belongs to `Cn1cc(-c2ccncc2)c(-c2ccc(OCc3nc4ccccc4cc3OCC[18F])cc2)n1` ?
Result: 90

====

Tested on: Blood
Assay: Biodistribution in Sprague-Dawley rat blood at 1.48 to 2.22 MBq, iv measured at 5 mins by gamma counting analysis
Assay type: ADME, organism-based
Conditions: in vivo
observed property: Drug uptake (% ID/g)
Write it as a number; the unit % ID/g goes unstated.

Here's what some known entries look like.
Cn1cc(-c2ccncc2)c(-c2ccc(OCc3cc(COCC[18F])c4ccccc4n3)cc2)n1    0.44
Cn1cc(-c2ccncc2)c(-c2ccc(OCc3cc(OCC[18F])c4ccccc4n3)cc2)n1    0.362
Cn1cc(-c2ccncc2)c(-c2ccc(OCc3cc(OCCOCCOCC[18F])c4ccccc4n3)cc2)n1    0.699

Problem: Which Drug uptake value belongs to `Cn1cc(-c2ccncc2)c(-c2ccc(OCc3nc4ccccc4cc3OCC[18F])cc2)n1` ?
Result: 0.343

Problem: Param item: `Cn1cc(-c2ccncc2)c(-c2ccc(OCc3cc([18F])c4ccccc4n3)cc2)n1`
Result: 0.353

Problem: Param item: `Cn1cc(-c2ccncc2)c(-c2ccc(OCc3cc(CCC[18F])c4ccccc4n3)cc2)n1`
Result: 0.459

Problem: Param item: `Cn1cc(-c2ccncc2)c(-c2ccc(OCc3cc(C[18F])c4ccccc4n3)cc2)n1`
Result: 0.471
